system: V23 1322 Burkholderia cepacia; assay: MIC assay, CAMHB with alginate oligomer, no visible growth; assay type: cell-based; conditions: Table 6; V23; Experiment 3 (19-03-10); OligoCF-5/20 +2% G
Marks after values point to notes of the source that are not given here.
Field: MIC. Provide a value for each of the molecules that follow.

Input: Given the entry "CN(C)[C@@H]1C(O)=C(C(N)=O)C(=O)[C@@]2(O)C(O)=C3C(=O)c4c(O)cccc4[C@@](C)(O)[C@H]3[C@H](O)[C@@H]12" , what MIC was observed with V23 1322 Burkholderia cepacia?
Output: 256^† μg/ml

Input: Also, "CC1(C)C[C@@H]1C(=O)N/C(=C\CCCCSC[C@H](N)C(=O)O)C(=O)O" please.
Output: 256 µg/mL

Input: Now consider "CC[C@H]1OC(=O)[C@H](C)[C@@H](O[C@H]2C[C@@](C)(OC)[C@@H](O)[C@H](C)O2)[C@H](C)[C@@H](O[C@@H]2O[C@H](C)C[C@H](N(C)C)[C@H]2O)[C@](C)(O)C[C@@H](C)CN(C)[C@H](C)[C@@H](O)[C@]1(C)O" and answer again.
Output: 16 µg/mL

Input: "CC[C@H]1OC(=O)[C@H](C)[C@@H](O[C@H]2C[C@@](C)(OC)[C@@H](O)[C@H](C)O2)[C@H](C)[C@@H](O[C@@H]2O[C@H](C)C[C@H](N(C)C)[C@H]2O)[C@](C)(OC)C[C@@H](C)C(=O)[C@H](C)[C@@H](O)[C@]1(C)O" , same question.
Output: 512^‡ μg/ml

Input: Record: "C[C@@H](O)[C@H]1C(=O)N2C(C(=O)O)=C(S[C@@H]3CN[C@H](C(=O)N(C)C)C3)[C@H](C)[C@H]12"
Output: 64^† μg/ml

Input: And then "C[C@H]1[C@H](NC(=O)/C(=N\OC(C)(C)C(=O)O)c2csc(N)n2)C(=O)N1S(=O)(=O)O" , what is it?
Output: >4096 µg/mL

Input: Next up: "CC(C)(O/N=C(\C(=O)N[C@@H]1C(=O)N2C(C(=O)[O-])=C(C[n+]3ccccc3)CS[C@H]12)c1csc(N)n1)C(=O)O"
Output: 32^† μg/ml

---

system: V12 5725 (Wales) Klebsiella pneumoniae; assay: MIC assay, CAMHB with alginate oligomer, no visible growth; type: cell-based; settings: Table 5; V12 MDR Kleb pneu; OligoCF-5/20 +10% G
Marks after values point to notes of the source that are not given here.
measure name: MIC

Input: Recorded MIC for "O=C(O)c1cn(C2CC2)c2cc(N3CCNCC3)c(F)cc2c1=O" , please?
Output: 256^‡ μg/ml

Input: Also "CC(C)(O/N=C(\C(=O)N[C@@H]1C(=O)N2C(C(=O)[O-])=C(C[n+]3ccccc3)CS[C@H]12)c1csc(N)n1)C(=O)O" ?
Output: 16^† μg/ml

Input: Can you handle "CC[C@H]1OC(=O)[C@H](C)[C@@H](O[C@H]2C[C@@](C)(OC)[C@@H](O)[C@H](C)O2)[C@H](C)[C@@H](O[C@@H]2O[C@H](C)C[C@H](N(C)C)[C@H]2O)[C@](C)(O)C[C@@H](C)C(=O)[C@H](C)[C@@H](O)[C@]1(C)O" next?
Output: 512 µg/mL
